molecular target: human sphingosine-1-phosphate receptor 1 (S1P1) (Homo sapiens (Human)); assay: β-Arrestin2 recruitment assay (PathHunter), S1P1 CHO-K1 cells; assay type: cell-based; details: CHO-K1; efficacy (SPAN) normalized to fingolimod; read-out: hS1P1 B-arrestin2 SPAN
Sequence (P21453 whole entry, looked up): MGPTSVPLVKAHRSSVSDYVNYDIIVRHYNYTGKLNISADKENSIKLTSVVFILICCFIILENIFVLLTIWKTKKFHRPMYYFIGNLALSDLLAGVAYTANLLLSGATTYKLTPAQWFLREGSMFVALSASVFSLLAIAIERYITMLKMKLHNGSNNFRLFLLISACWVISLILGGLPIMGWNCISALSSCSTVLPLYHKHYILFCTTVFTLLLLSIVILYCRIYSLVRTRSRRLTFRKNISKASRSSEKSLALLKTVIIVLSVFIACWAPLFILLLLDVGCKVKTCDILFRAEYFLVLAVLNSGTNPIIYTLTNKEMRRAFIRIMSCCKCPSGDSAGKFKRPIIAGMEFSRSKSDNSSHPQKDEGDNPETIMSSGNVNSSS
Sequence (P32121 whole entry partner, looked up): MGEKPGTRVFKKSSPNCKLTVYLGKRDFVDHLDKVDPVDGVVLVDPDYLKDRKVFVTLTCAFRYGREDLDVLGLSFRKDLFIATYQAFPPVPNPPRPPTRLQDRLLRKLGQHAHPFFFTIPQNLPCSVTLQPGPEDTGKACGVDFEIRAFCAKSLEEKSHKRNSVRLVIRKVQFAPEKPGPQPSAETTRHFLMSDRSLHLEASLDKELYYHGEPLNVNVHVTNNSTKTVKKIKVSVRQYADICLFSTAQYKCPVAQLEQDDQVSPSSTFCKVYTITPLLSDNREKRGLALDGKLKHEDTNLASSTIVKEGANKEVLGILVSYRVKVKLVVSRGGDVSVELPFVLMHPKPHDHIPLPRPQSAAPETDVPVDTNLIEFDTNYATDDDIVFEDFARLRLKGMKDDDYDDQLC
For each entry below, report its Emax value.

Value lookup for Emax; key = Clc1ccc(-c2noc(-c3ccc4c(c3)nnn4C3CCOCC3)n2)s1 [Compound 82]
< 75%

Reported Emax, molecule CCCCC1(CCCC)CC(=O)c2cc(-c3nc(-c4cccnc4)no3)ccc2O1 [Compound 188] : ____
< 75%

// query Emax value for entry CC(C)Oc1ccc(-c2nc(-c3ccc4c(c3)nnn4C3CCCC3)no2)cc1 [Compound 121]
< 75%

Quick one: Emax of CCC1(CC)CC(=O)c2cc(-c3nc(-c4ccc5sc(N)nc5c4)no3)ccc2O1 [Compound 446] ?
< 75%

Tell me the measured Emax of Cc1cc(C)cc(-c2noc(-c3ccc4c(c3)nnn4C3CCCCC3)n2)c1 [Compound 158] , please.
< 75%

Which Emax is reported for this molecule? CC(C)n1nnc2cc(-c3noc(C4CCOCC4)n3)ccc21 [Compound 89]
< 75%

// lookup Emax for CC(C)Nc1ccc(-c2nc(-c3ccc4sc(N)nc4c3)no2)cc1C#N [Compound 441]
> 75%

Consider the molecule COc1cc(-c2noc(-c3ccc4c(c3)nnn4C3CCCC3)n2)ccn1 [Compound 281] and give its measured Emax.
< 75%

If you can, please state the reported Emax value of Cc1ccccc1Cc1noc(-c2ccc3c(c2)nnn3C(C)C)n1 [Compound 202] .
< 75%

Data request, read-out Emax, for CC(C)n1nnc2cc(-c3noc(C4CCCCC4)n3)ccc21 [Compound 127]
< 75%

Please give the measured Emax for this molecule: Cc1cc(-c2noc(-c3ccc4c(c3)nnn4CC(C)(C)O)n2)c(C)o1 [Compound 493]
> 75%

Returns the measured Emax for the input molecule. Input: Cc1cccc2nc(-c3ccc4c(c3)nnn4C(C)C)oc12 [Compound 421]
< 75%

What does the data say about its Emax? Entry: COc1cccnc1-c1noc(-c2ccc3c(c2)nnn3C2CCCC2)n1 [Compound 203]
> 75%

Return reported Emax; argument: CCC1(CC)CC(=O)c2cc(-c3nsc(-c4cccnc4)n3)ccc2O1 [Compound 137]
> 75%

Would you mind telling me what Emax value was observed for c1cc(-c2noc(-c3ccc4c(c3)nnn4C3CCCC3)n2)ccn1 [Compound 174] ?
> 75%

Requested read-out: Emax. Entry: CC(C)n1ncc2cc(-c3nc(-c4ccccc4OC(F)(F)F)no3)ccc21 [Compound 331]
> 75%

What value of Emax has been recorded for this entry: CC(C)n1nnc2cc(-c3nc(-c4ccc(OCc5ccccc5)cc4)no3)ccc21 [Compound 53]
< 75%

Request the reported Emax associated with Cc1cc(-c2noc(-c3ccc4c(c3)nnn4C3CCCC3)n2)ccn1 [Compound 77]
< 75%

----------
molecular target: human sphingosine-1-phosphate receptor 1 (S1P1) (Homo sapiens (Human), UniProt P21453); test: Inhibition of cAMP production (HTRF cAMP HiRange), S1P1 CHO-K1 cells; assay type: cell-based; details: inhibition of cAMP production, S1P1 CHO-K1 cells
Sequence (P21453 whole entry, looked up): as the sequence (P21453 whole entry, looked up) above
Give hS1P1 cAMP pEC50 for every item shown.

Request body: readout hS1P1 cAMP pEC50, system human sphingosine-1-phosphate receptor 1 (S1P1) (Homo sapiens (Human), UniProt P21453), query `Cc1nccnc1-c1nc(-c2ccc3c(c2)nnn3C(C)(C)CO)no1` . Return the value.
<6.5

Form entry - test system: human sphingosine-1-phosphate receptor 1 (S1P1) (Homo sapiens (Human), UniProt P21453); read-out: hS1P1 cAMP pEC50; molecule: `CC(C)n1ccc2cc(-c3noc(-c4ccccc4F)n3)ccc21`
<6.5

Form field - read-out: hS1P1 cAMP pEC50; system: human sphingosine-1-phosphate receptor 1 (S1P1) (Homo sapiens (Human), UniProt P21453); submitted item: `CCC1(CC)CC(=O)c2cc(-c3nc(-c4ccncc4O)no3)ccc2O1`
<6.5

human sphingosine-1-phosphate receptor 1 (S1P1) (Homo sapiens (Human), UniProt P21453) / hS1P1 cAMP pEC50 / `CCC1(CC)CC(=O)c2cc(-c3nc(-c4ccc5sc(N)nc5c4)no3)ccc2O1` : value?
<6.5

# query: hS1P1 cAMP pEC50 | item `COc1ccc(-c2noc(-c3ccc4c(c3)nnn4C(C)C)n2)c(C)c1` | system: human sphingosine-1-phosphate receptor 1 (S1P1) (Homo sapiens (Human), UniProt P21453)
>6.5

Write down the reported hS1P1 cAMP pEC50 of `CCC1(CC)CC(=O)c2cc(-c3nc(-c4cccnc4)ns3)ccc2O1` , test system: human sphingosine-1-phosphate receptor 1 (S1P1) (Homo sapiens (Human), UniProt P21453).
<6.5

Short answer please: hS1P1 cAMP pEC50, human sphingosine-1-phosphate receptor 1 (S1P1) (Homo sapiens (Human), UniProt P21453), entry `Cc1ccc(-c2nc(-c3ccc4c(c3)nnn4C3CCCC3)no2)cc1`
<6.5

Lab request: please report hS1P1 cAMP pEC50 under test system human sphingosine-1-phosphate receptor 1 (S1P1) (Homo sapiens (Human), UniProt P21453) for `N#Cc1cc(-c2nnc(-c3ccc4[nH]c(=O)oc4c3)o2)ccc1NCC1CC1`
>6.5

Give recorded hS1P1 cAMP pEC50 with human sphingosine-1-phosphate receptor 1 (S1P1) (Homo sapiens (Human), UniProt P21453) for the following molecule: `CC(C)n1nnc2cc(-c3nc(-c4ccc(COc5ccccc5)cc4)no3)ccc21`
<6.5

----------
Target: human sphingosine-1-phosphate receptor 1 (S1P1) (Homo sapiens (Human), UniProt P21453)
Assay: Inhibition of cAMP production (HTRF cAMP HiRange), S1P1 CHO-K1 cells
Assay type: cell-based
Conditions: inhibition of cAMP production, S1P1 CHO-K1 cells
Method: Stable clonal Chinese hamster ovary K1 (CHO-K1) cells co-expressing EA-β-arrestin2 and the human sphingosine-1-phosphate receptor 1 (NM_001400, S1P1) with a C-terminal Prolink™ tag were purchased from DiscoverX corporation (Cat #: 93-0207C2). […] Agonist-promoted G-protein responses were determined by measuring changes in intracellular cAMP using the HTRF® cAMP HiRange kit (CisBio, Cat #: 62AM6PEJ) based on time-resolved fluorescence resonance energy transfer (TR-FRET) technology. […]
Assign hS1P1 cAMP pEC50 to each entry below.

Entry COc1ccccc1-c1coc(-c2ccc3c(c2)nnn3C(C)C)n1 [Compound 277] , system human sphingosine-1-phosphate receptor 1 (S1P1) (Homo sapiens (Human), UniProt P21453): what hS1P1 cAMP pEC50 was measured?
>6.5

Please tell me: hS1P1 cAMP pEC50 of Cc1cccc2nc(-c3ccc4c(c3)nnn4C(C)C)oc12 [Compound 421] , system human sphingosine-1-phosphate receptor 1 (S1P1) (Homo sapiens (Human), UniProt P21453)?
<6.5

Recall the recorded hS1P1 cAMP pEC50 for CC(F)CNc1ccc(-c2nc(-c3ccc4c(c3)CCC(=O)N4)no2)cc1C#N (stereo not drawn) [Compound 348] with human sphingosine-1-phosphate receptor 1 (S1P1) (Homo sapiens (Human), UniProt P21453) and state it.
>6.5

Lookup: hS1P1 cAMP pEC50 / human sphingosine-1-phosphate receptor 1 (S1P1) (Homo sapiens (Human), UniProt P21453) / CCCn1nnc2cc(-c3nc(-c4cccc(C)c4)no3)ccc21 [Compound 54]
<6.5

Provide value of hS1P1 cAMP pEC50 for this record tested with human sphingosine-1-phosphate receptor 1 (S1P1) (Homo sapiens (Human), UniProt P21453): CC(F)(F)CNc1ccc(-c2nnc(-c3ccc4[nH]ncc4c3)o2)cc1C#N [Compound 355]
>6.5

Any idea what hS1P1 cAMP pEC50 came out for Cc1nccnc1-c1nc(-c2ccc3c(c2)nnn3C(C)C)no1 [Compound 44] on human sphingosine-1-phosphate receptor 1 (S1P1) (Homo sapiens (Human), UniProt P21453)?
<6.5

Lab request: please report hS1P1 cAMP pEC50 under test system human sphingosine-1-phosphate receptor 1 (S1P1) (Homo sapiens (Human), UniProt P21453) for CCCC1CC(=O)c2ccc(-c3nc(-c4cccnc4)no3)cc2O1 (stereo not drawn) [Compound 630]
<6.5

Request: hS1P1 cAMP pEC50, test system human sphingosine-1-phosphate receptor 1 (S1P1) (Homo sapiens (Human), UniProt P21453), entry COc1ccc(-c2nc(-c3ccc4c(c3)nnn4C3CCCC3)no2)cc1 [Compound 196]
<6.5

Missing value: hS1P1 cAMP pEC50, human sphingosine-1-phosphate receptor 1 (S1P1) (Homo sapiens (Human), UniProt P21453), entry N#Cc1cc(-c2nc(-c3ccc4c(c3)CCC(=O)N4)no2)ccc1N [Compound 345] . Fill in?
<6.5

----------
molecular target: human sphingosine-1-phosphate receptor 1 (S1P1) (Homo sapiens (Human)); assay: Inhibition of cAMP production (HTRF cAMP HiRange), S1P1 CHO-K1 cells; format: cell-based; conditions: inhibition of cAMP production, S1P1 CHO-K1 cells
recorded_endpoint: hS1P1 cAMP pEC50

So what does the record say about hS1P1 cAMP pEC50 for Cc1ccccc1-c1c[nH]c(-c2ccc3c(c2)nnn3C(C)C)c1 [Compound 516] ?
<6.5

Field request: hS1P1 cAMP pEC50 | item: CCc1ccccc1-c1nc(-c2ccc3c(c2)nnn3CC(C)(C)CO)no1 [Compound 527]
<6.5

Bench note: what hS1P1 cAMP pEC50 did CC(C)Nc1ccc(-c2nc(-c3ccc4c(c3)C(=O)NCC4)no2)cc1C#N [Compound 514] show?
>6.5

Field request: hS1P1 cAMP pEC50 | item: Cc1ccccc1-c1cc(-c2ccc3c(c2)nnn3C(C)C)c[nH]1 [Compound 601]
<6.5

Returns the measured hS1P1 cAMP pEC50 for the input compound. Input: CCC1(CC)CC(=O)c2cc(-c3nc(-c4ccc(C(N)=O)cc4)no3)ccc2O1 [Compound 179]
>6.5

Look up hS1P1 cAMP pEC50 for this compound: CCC1(CC)CC(=O)c2cc(-c3nc(-c4ccc(N)cc4)no3)ccc2O1 [Compound 256]
>6.5

Given the compound O=C1CNc2ccc(-c3nc(-c4cccnc4)no3)cc2N1 [Compound 629] , what is its reported hS1P1 cAMP pEC50?
<6.5

# hS1P1 cAMP pEC50 lookup, item CCC1(CC)CC(=O)c2cc(-c3nc(-c4ccsc4)no3)ccc2N1 [Compound 554]
>6.5

Which measured hS1P1 cAMP pEC50 value corresponds to Cc1cc(-c2nc(-c3ccc4c(c3)nnn4C(C)C)no2)ccn1 [Compound 86] ?
<6.5

hS1P1 cAMP pEC50 lookup needed for COc1cc(NC(C)=O)ccc1-c1nc(-c2ccncc2)no1 [Compound 582] , thanks.
<6.5

Field request: hS1P1 cAMP pEC50 | item: OCCn1nnc2cc(-c3noc(-c4ccccc4Br)n3)ccc21 [Compound 238]
<6.5

Can you look up the measured hS1P1 cAMP pEC50 of CC(C)n1nnc2cc(-c3nc(-c4ccccc4F)co3)ccc21 [Compound 21] for me?
<6.5

I have this compound here, CCC1(CC)CC(=O)c2cc(-c3nc(-c4ccc(S(N)(=O)=O)cc4)no3)ccc2O1 [Compound 106] , and I need its recorded hS1P1 cAMP pEC50.
>6.5

Which hS1P1 cAMP pEC50 value is on record for CC(C)n1ccc2cc(-c3noc(-c4ccccc4C(F)(F)F)n3)ccc21 [Compound 390] ?
>6.5

I am curious: what hS1P1 cAMP pEC50 value has been reported for CC(C)(CO)n1nnc2cc(-c3noc(-c4cnccc4C(F)(F)F)n3)ccc21 [Compound 644] ?
<6.5

Given the entry CC(C)Nc1ccc(-c2nnc(-c3ccc4ncn(C)c4c3)o2)cc1C#N [Compound 579] , report its measured hS1P1 cAMP pEC50.
>6.5

Form field: reported hS1P1 cAMP pEC50 of Cc1ccc2nc(-c3ccc4c(c3)nnn4CC(C)C)oc2c1 [Compound 448]
<6.5

Given the entry CC(C)n1nnc2cc(-c3nc(-c4ccccc4)co3)ccc21 [Compound 294] , report its measured hS1P1 cAMP pEC50.
<6.5

// lookup hS1P1 cAMP pEC50 for COc1ccccc1-c1nc(-c2ccc3c(c2)nnn3C(C)C)co1 [Compound 575]
>6.5

Looking for the measured hS1P1 cAMP pEC50 of CCC1(CC)CC(=O)c2cc(-c3nc(-c4ccc(C)nc4)no3)ccc2O1 [Compound 550] , can you help?
<6.5

State the recorded hS1P1 cAMP pEC50 for this entry: CCC1(CC)CC(=O)c2cc(-c3nc(-c4ccnc(NC(C)=O)c4)no3)ccc2O1 [Compound 512]
>6.5

For the compound COc1ccc(-c2noc(-c3ccc4c(c3)nnn4C3CCCC3)n2)c2ccccc12 [Compound 91] , what hS1P1 cAMP pEC50 is on record?
<6.5

So what's the measured hS1P1 cAMP pEC50 for this one? CC(C)n1ccc2cc(-c3noc(-c4ccncc4)n3)ccc21 [Compound 395]
>6.5

Item under review: COc1cc(C)c2nc(-c3ccc4c(c3)nnn4C(C)C)oc2c1 [Compound 436] . Reported hS1P1 cAMP pEC50?
>6.5

Can you look up the measured hS1P1 cAMP pEC50 of CC(C)n1ccc2cc(-c3nc(-c4ccccc4C(F)(F)F)cs3)cnc21 [Compound 408] for me?
<6.5

What measured hS1P1 cAMP pEC50 goes with CCC1(CC)CC(=O)c2cc(-c3nc(-c4ccc(OC)cc4)no3)ccc2O1 [Compound 65] ?
<6.5

Param item = CC1(C)CCC2(CC1)CC(=O)c1cc(-c3nc(-c4ccncc4)no3)ccc1O2 [Compound 254] ; retrieve measured hS1P1 cAMP pEC50.
>6.5

Can you share its hS1P1 cAMP pEC50? I mean this compound: C=CCNc1ccc(-c2nc(-c3ccc4[nH]c(=O)oc4c3)no2)cc1C#N [Compound 189]
>6.5

Quick one: hS1P1 cAMP pEC50 of Cc1ccccc1C(C)c1noc(-c2ccc3c(c2)nnn3CC(C)C)n1 (stereo not drawn) [Compound 154] ?
<6.5

Form field: reported hS1P1 cAMP pEC50 of CC(C)Nc1ccc(-c2nnc(-c3cccc4[nH]cnc34)o2)cc1C#N [Compound 585]
>6.5

// query hS1P1 cAMP pEC50 value for entry CCC1(CC)CC(=O)c2cc(-c3nc(-c4cccnc4O)no3)ccc2O1 [Compound 258]
<6.5

Which hS1P1 cAMP pEC50 is reported for this compound? CC1(C)CC(=O)c2cc(-c3nc(-c4cccnc4)no3)ccc2O1 [Compound 274]
<6.5

Which hS1P1 cAMP pEC50 is reported for this compound? Clc1ncccc1-c1noc(-c2ccc3c(c2)nnn3CC2CC2)n1 [Compound 199]
<6.5

Please give the measured hS1P1 cAMP pEC50 for this compound: CCCCC1(CCCC)CC(=O)c2cc(-c3nc(-c4cccnc4)no3)ccc2O1 [Compound 188]
<6.5

I am curious: what hS1P1 cAMP pEC50 value has been reported for Cc1ccncc1-c1nc(-c2ccc3c(c2)nnn3C(C)(C)CO)no1 [Compound 625] ?
<6.5

Entry Cc1oc(-c2ccc3c(c2)nnn3C(C)C)nc1-c1ccccc1 [Compound 247] has what hS1P1 cAMP pEC50?
<6.5
